biological target: T1, biotinylated HLA-A2/WT1126 (…) monomer (human, biotin at a specific biotinylation site at the C-terminus); assay: SPR Biacore T100; biotinylated pMHC captured, antibody injected; 1:1 fit
T1 construct: also called HLA-A2-WT1 monomer; WT1126/HLA-A2
parameter: pKd
pKd is defined as minus the log10 of a concentration measured in mol/L.

Illustrative cases are given below, each with its answer.
binder | pKd
Q1L scFv (scFv, Clone45 with VH-Q50L; Soluble scFv; also called scFv Q1L) scFv: EVQLLESGGGLVQPGGSLRLSCAASGFTFSSYAMSWVRQAPGKGLEWVSLIDPWGQETLYADSVKGRFTISRDNSKNTLYLQMNSLRAEDTAVYYCAKLTGRFDYWGQGTLVTVSSGGGGSGGGGSGGGGSTDIQMTQSPSSLSASVGDRVTITCRASQSISSYLNWYQQKPGKAPKLLIYSASQLQSGVPSRFSGSGSGTDFTLTISSLQPEDFATYYCQQGPGTPNTFGQGTKVEIKRA | 7.23
S3.6 scFv (scFv, Soluble scFv, Ni-NTA purified, detected with anti-Flag) scFv: EVQLLESGGGLVQPGGSLRLSCAASGFTFSSYAMSWVRQAPGKGLEWVSLIDPWGQETLYADSVKGRFTISRDNSKNTLYLQMNSLRAEDTAVYYCAKLTGRFDYWGQGTLVTVSSGGGGSGGGGSGGGGSTDIQMTQSPSSLSASVGDRVTITCRASQSISNYLNWYQQKPGKAPKLLIYSASQLQSGVPSRFSGSGSGTVFTLTISSLQPEDFATYYCQQGPGTPNTFGQGTKVEIKRA | 7.85

Then there is this binder:
What does the data say about its pKd? Entry: Clone45 scFv (scFv, also called scFv Clone45; parental Clone45) scFv: EVQLLESGGGLVQPGGSLRLSCAASGFTFSSYAMSWVRQAPGKGLEWVSQIDPWGQETLYADSVKGRFTISRDNSKNTLYLQMNSLRAEDTAVYYCAKLTGRFDYWGQGTLVTVSSGGGGSGGGGSGGGGSTDIQMTQSPSSLSASVGDRVTITCRASQSISSYLNWYQQKPGKAPKLLIYSASQLQSGVPSRFSGSGSGTDFTLTISSLQPEDFATYYCQQGPGTPNTFGQGTKVEIKRA
6.58
